Below, each of the molecules is paired with its reported TGI value.
Tested on: CCRF-CEM leukemia
assay notes: NCI tumour cell line growth inhibition, 48 h
property name: TGI

CCCCCCCCCCCCCCCC(=O)Nc1ccn(C2OC(CO)C(O)C2O)c(=O)n1 (stereo not drawn) | 7.28 µM
COc1ccc2c(c1)C(=Nc1ccc(F)c(F)c1F)c1c-2c(Nc2ccc(F)c(F)c2F)nc2ccccc12 | > 100 µM
Cc1cccc(C)c1NC(=O)/C=C/c1ccccc1 | > 100 µM

* * *

Below, each of the molecules is paired with its reported TGI value.
Tested on: HCC-2998 colon
assay notes: NCI tumour cell line growth inhibition, 48 h
property name: TGI

CCN(CC)c1ccc(/C=C/C2=NN(c3cccc(S(=O)(=O)O)c3)C3(C2)SCC(=O)N3c2nc3ccccc3s2)cc1 (stereo not drawn) | > 100 µM
CC(C)=NNC1=NC(C)(C)P(=O)(NNc2ncccn2)S1 (stereo not drawn) | > 100 µM
Cc1ccc(/C(O)=C/c2nc3ccccc3[nH]c2=O)cc1 | > 100 µM

* * *

Test system: U251 CNS
assay notes: NCI tumour cell line growth inhibition, 48 h
Below, each of the compounds is paired with its reported TGI value.
property name: TGI

COc1ccc(CN(Cc2ccc(OC)cc2)C(=O)CC2(O)CCc3ccccc3C2)cc1 (centres undefined) | > 100 µM
COc1ccc2c(c1)CCc1cc(C(N)=O)c3nnnn3c1-2 | > 67.4 µM
CN(C)CCN(C)CCC(=O)/C=C/c1ccccc1 | > 100 µM
CCOC(=O)Oc1ccc(C(CNC(C)C)OC(=O)OCC)cc1OC(=O)OCC (centres undefined) | > 100 µM

* * *

Tested on: HT29 colon
assay notes: NCI tumour cell line growth inhibition, 48 h
property name: TGI (µM)

CC1(C)CCCC2(C)[C@@H]1CC[C@@]13CC(=O)[C@@](C)(CC[C@@H]21)C3 (some centres undefined) | 76.3
Clc1ccc(OCc2nnc3n2N=C(c2ccccc2)CS3)cc1 | 29.8
COc1ccc2c(c1)/C(=C\c1c(-c3ccccc3)nc3n1CCS3)C(=O)N2 | 16
CC[C@H](C)[C@H](NC(=O)C12CC(NC)(C1)C2)C(=O)N(C)[C@H](C[C@@H](OC(C)=O)c1nc(C(=O)N[C@@H](Cc2ccccc2)C[C@H](C)C(=O)OC)cs1)C(C)C | 1.33

* * *

Tested on: UACC-257 melanoma
assay notes: NCI tumour cell line growth inhibition, 48 h
property name: TGI

O=C(O)c1ccc2nc(-c3ccc(OCCCCCOc4ccc(-c5nc6ccc(C(=O)O)cc6[nH]5)cc4)cc3)[nH]c2c1 | > 100 µM
CN(N=O)C(=O)NNC(=O)N(C)N=O | > 100 µM
CCOC(=O)N1CCC2C(=C(C)C(C)C3=C2C(=O)c2ccccc2C3=O)C1 (stereo not given) | > 10 µM
COC(=O)C1CC2c3c(c4ccccc4n3C)CC(C1=O)N2C (stereo not given) | > 100 µM
CC1=C(C)C2(C#N)C(=O)N3C(=NC(c4ccccc4)NC3c3ccccc3)C2(C#N)C(c2ccccc2)N1 (stereo not given) | > 100 µM

* * *

Below, each of the compounds is paired with its reported TGI value.
Test system: MDA-MB-231 breast
assay notes: NCI tumour cell line growth inhibition, 48 h
property name: TGI

COc1ccc(N2C(=O)C3c4[nH]c5cccc(Cl)c5c4C4CCC(C(C)(C)C)CC4C3C2=O)cc1 (stereo not drawn) | > 100 µM
CCOC(=O)Oc1ccc(C(CNC(C)C)OC(=O)OCC)cc1OC(=O)OCC (stereo not drawn) | > 100 µM
COc1ccc(CN(Cc2ccc(OC)cc2)C(=O)CC2(O)CCc3ccccc3C2)cc1 (stereo not drawn) | > 100 µM

These entries and their values trace back to PubChem BioAssay (NCI).
